# testProtocol: Cytotoxicity against human HEK293 cells transfected with human TLR7/8 assessed as reduction in cell viability incubated for 24 hrs by MTS assay
# Assay type: cell-based
# setupConditions: read-out: MNCC
Reported MNTC at 24 h values for a set of compounds
Lab book: enter the figure in µM, no units written.

- recordSmiles: "FC(F)(F)c1nc(NC2CCCC2)c2ccccc2n1"
  MNTC at 24 h / µM: 62.5
- recordSmiles: "CC(C)Nc1nc(C(F)(F)F)nc2ccccc12"
  MNTC at 24 h / µM: 62.5
- recordSmiles: "Nc1nc(C(F)(F)F)nc2ccccc12"
  MNTC at 24 h / µM: 62.5
- recordSmiles: "FC(F)(F)c1nc(NC2CCN(C3CC3)CC2)c2ccccc2n1"
  MNTC at 24 h / µM: 125

Determine from records and report MNTC at 24 h for Oc1nc(C(F)(F)F)nc2ccccc12
62.5

* * *

# tgt: Toll-like receptor 7 (Homo sapiens) (UniProt Q9NYK1)
# Sequence (whole entry): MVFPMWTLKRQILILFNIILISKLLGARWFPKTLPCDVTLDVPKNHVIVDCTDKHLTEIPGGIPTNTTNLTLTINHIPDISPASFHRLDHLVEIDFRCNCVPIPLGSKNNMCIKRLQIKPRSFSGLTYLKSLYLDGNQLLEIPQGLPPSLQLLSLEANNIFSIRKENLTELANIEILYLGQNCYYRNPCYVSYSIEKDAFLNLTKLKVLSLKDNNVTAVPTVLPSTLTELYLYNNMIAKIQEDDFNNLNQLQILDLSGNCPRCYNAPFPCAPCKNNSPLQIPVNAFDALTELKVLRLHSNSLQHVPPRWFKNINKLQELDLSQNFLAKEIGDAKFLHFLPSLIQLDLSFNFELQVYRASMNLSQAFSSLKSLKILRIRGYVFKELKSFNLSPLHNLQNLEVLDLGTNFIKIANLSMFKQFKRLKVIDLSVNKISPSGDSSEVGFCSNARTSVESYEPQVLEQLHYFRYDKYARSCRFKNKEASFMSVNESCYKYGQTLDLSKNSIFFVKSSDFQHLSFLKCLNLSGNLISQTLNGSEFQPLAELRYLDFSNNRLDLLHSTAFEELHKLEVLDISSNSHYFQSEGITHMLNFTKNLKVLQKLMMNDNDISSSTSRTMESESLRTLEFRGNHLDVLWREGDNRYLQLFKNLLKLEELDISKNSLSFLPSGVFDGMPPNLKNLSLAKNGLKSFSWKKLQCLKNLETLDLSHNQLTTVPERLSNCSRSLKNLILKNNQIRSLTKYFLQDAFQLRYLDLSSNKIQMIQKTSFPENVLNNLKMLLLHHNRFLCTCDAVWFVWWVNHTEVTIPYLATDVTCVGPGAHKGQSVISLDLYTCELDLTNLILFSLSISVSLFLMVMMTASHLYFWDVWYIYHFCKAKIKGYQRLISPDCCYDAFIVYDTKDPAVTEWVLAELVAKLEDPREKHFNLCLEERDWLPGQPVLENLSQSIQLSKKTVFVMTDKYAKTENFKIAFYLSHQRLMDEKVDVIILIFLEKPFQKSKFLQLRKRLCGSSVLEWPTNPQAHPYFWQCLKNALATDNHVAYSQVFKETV
# testProtocol: Antagonist activity at human TLR7 in HEK293 cells cotransfected with SEAP reporter gene assessed as activity of SEAP preincubated for 2 hrs followed by imiquimod addition further incubated for 24 hrs by quanti-blue staining based SEAP reporter gene assay
# Format: cell-based
Activity calls are given as the source filed them. The calls are words filed in the database; no cut-off is given here.
Form entry, call: pick from TRUE = active, FALSE = inactive

- recordSmiles: "CCCNc1nc(C(F)(F)F)nc2ccccc12"
  tgt: "Toll-like receptor 7 (Homo sapiens) (UniProt Q9NYK1)"
  labelValue: "FALSE"
- recordSmiles: "FC(F)(F)c1nc(NC2CCCC2)c2ccccc2n1"
  tgt: "Toll-like receptor 7 (Homo sapiens) (UniProt Q9NYK1)"
  labelValue: "FALSE"
- recordSmiles: "FC(F)(F)c1nc(NC2CCCCC2)c2ccccc2n1"
  tgt: "Toll-like receptor 7 (Homo sapiens) (UniProt Q9NYK1)"
  labelValue: "FALSE"
- recordSmiles: "CCN(CC)c1ccc2c(c1)oc(=O)c1ncn(CC(C)C)c12"
  tgt: "Toll-like receptor 7 (Homo sapiens) (UniProt Q9NYK1)"
  labelValue: "FALSE"
- recordSmiles: "OCCNc1nc(C(F)(F)F)nc2ccccc12"
  tgt: "Toll-like receptor 7 (Homo sapiens) (UniProt Q9NYK1)"
  labelValue: "FALSE"
- recordSmiles: "CC(C)Cn1cnc2c(=O)oc3ccccc3c21"
  tgt: "Toll-like receptor 7 (Homo sapiens) (UniProt Q9NYK1)"
  labelValue: "TRUE"

In the following, a different compound is considered.
In this assay, the call recorded for CC(C)Nc1nc(C(F)(F)F)nc2ccccc12 was what?
FALSE

* * *

Reported MNTC at 24 h values for a set of compounds
# testProtocol: Cytotoxicity against human HEK293 cells transfected with human TLR7/8 assessed as reduction in cell viability incubated for 24 hrs by MTS assay
# Assay type: cell-based
# setupConditions: read-out: MNCC
Lab book: enter the figure in µM, no units written.

# annotated cases, reported MNTC at 24 h shown
- recordSmiles: "FC(F)(F)c1nc(Cl)c2ccccc2n1"
  MNTC at 24 h (µM): 31.3
- recordSmiles: "COc1ccc2oc(=O)c3ncn(CC(C)C)c3c2c1"
  MNTC at 24 h (µM): 62.5
- recordSmiles: "CC(C)CNc1cc(C(F)(F)F)nc2ccccc12"
  MNTC at 24 h (µM): 62.5

Determine from records and report MNTC at 24 h for FC(F)(F)c1nc(NC2CCCCC2)c2ccccc2n1
31.3

Determine from records and report MNTC at 24 h for CCCNc1nc(C(F)(F)F)nc2ccccc12
62.5

Determine from records and report MNTC at 24 h for FC(F)(F)c1nc(N2CCCC2)c2ccccc2n1
31.3

Determine from records and report MNTC at 24 h for OCCNc1nc(C(F)(F)F)nc2ccccc12
125

Determine from records and report MNTC at 24 h for O=C(O)CNc1nc(C(F)(F)F)nc2ccccc12
31.3

Determine from records and report MNTC at 24 h for CC(C)Cn1cnc2c(=O)oc3ccc(O)cc3c21
62.5

* * *

# testProtocol: Cytotoxicity against human HEK293 cells transfected with human TLR7/8 assessed as reduction in cell viability incubated for 24 hrs by MTS assay
# Format: cell-based
# setupConditions: read-out: MNCC
measuredAttribute: MNTC at 24 h (µM)
Lab book: enter the figure in µM, no units written.

- molecule: "FC(F)(F)c1nc(NCC2CC2)c2ccccc2n1"
  unitLabel: "µM"
  measuredResult: 31.3

Determine from records and report MNTC at 24 h for CC(C)Cn1cnc2c(=O)oc3ccc([N+](=O)[O-])cc3c21
62.5

Determine from records and report MNTC at 24 h for FC(F)(F)c1nc(NCCN2CCCCC2)c2ccccc2n1
62.5

Determine from records and report MNTC at 24 h for CC1CCCN(c2nc(C(F)(F)F)nc3ccccc23)C1 (configuration not stated)
62.5

Determine from records and report MNTC at 24 h for FC(F)(F)c1nc(NCCc2cnc[nH]2)c2ccccc2n1
31.3

Determine from records and report MNTC at 24 h for Nc1ccc(CNc2nc(C(F)(F)F)nc3ccccc23)cc1
15.6

Determine from records and report MNTC at 24 h for CCN(CC)c1ccc2c(c1)oc(=O)c1ncn(CC(C)C)c12
62.5

Determine from records and report MNTC at 24 h for FC(F)(F)c1nc(NC2CC2)c2ccccc2n1
125

Determine from records and report MNTC at 24 h for FC(F)(F)c1nc(N2CCOCC2)c2ccccc2n1
125

Determine from records and report MNTC at 24 h for CC1CCCN(c2cc(C(F)(F)F)nc3ccccc23)C1 (configuration not stated)
31.3

* * *

# tgt: Toll-like receptor 7 (Homo sapiens)
# testProtocol: Agonist activity at human TLR7 in HEK293 cells cotransfected with SEAP reporter gene assessed as activity of SEAP incubated for 24 hrs by quanti-blue staining based SEAP reporter gene assay
# Type: cell-based
# setupConditions: read-out: EC50
measuredAttribute: pEC50
API: returns pEC50 as number; meaning -log10 of concentration in mol/L.

- recordSmiles: "Cc1ccc2oc(=O)c3ncn(CC(C)C)c3c2c1"
  measuredResult: 3.27
- recordSmiles: "CC(C)Cn1cnc2c(=O)oc3cc(O)ccc3c21"
  measuredResult: 3.94
- recordSmiles: "CC(C)CNc1nc(C(F)(F)F)nc2ccccc12"
  measuredResult: 5.36
- recordSmiles: "FC(F)(F)c1nc(NC2CCCCC2)c2ccccc2n1"
  measuredResult: 5.08

Please examine the following record next.
Determine from records and report pEC50 for FC(F)(F)c1nc(NC2CC2)c2ccccc2n1
4.77

* * *

# Test system: PBMC
# testProtocol: Induction of IL-8 production in human PBMC at 10 ug/ml incubated for 24 hrs by flow cytometry analysis
# Type: functional, cell-based
Activity calls are given as the source filed them. The rule behind the calls is not given here.
Form entry, call: pick from active, inactive

For orientation, consider the following solved cases.
- recordSmiles: "CC(C)Cn1cnc2c(=O)oc3ccc(O)cc3c21"
  labelValue: "inactive"
- recordSmiles: "CC(C)CNc1cc(C(F)(F)F)nc2ccccc12"
  labelValue: "active"
- recordSmiles: "FC(F)(F)c1nc(NC2CC2)c2ccccc2n1"
  labelValue: "active"

In this assay, the call recorded for FC(F)(F)c1nc(NC2CCCCC2)c2ccccc2n1 was what?
active

In this assay, the call recorded for CC(C)Cn1cnc2c(N)nc3ccccc3c21 was what?
active

Reference source: ChEMBL document CHEMBL4351003
